Reported pKi by item:
# Subject of test: Glutamate NMDA receptor
# Test summary: Displacement of [3H]CPP or [3H]-CGS- 19755 from rat N-methyl-D-aspartate glutamate receptor
# Assay type: protein-complex assay
pKi: −log10 of the molar value.

{"columns": ["Compound", "Subject of test", "pKi"],
 "data": [
  ["CC([C@@H]1CCN[C@H](C(=O)O)C1)P(=O)(O)O (some centres not stated)", "Glutamate NMDA receptor", "< 6.00"],
  ["O=C(O)[C@@H]1C[C@H](/C=C/CP(=O)(O)O)CCN1", "Glutamate NMDA receptor", "> 6.00"],
  ["O=C(O)[C@@H]1C[C@H](CCCP(=O)(O)O)CCN1", "Glutamate NMDA receptor", "> 6.00"]
]}

Prompt: Please supply the value of reported pKi for the item "CC(C)([C@@H]1CCN[C@H](C(=O)O)C1)P(=O)(O)O"
Response: < 6.00

Prompt: Please supply the value of reported pKi for the item NC(CCc1ccccc1CP(=O)(O)O)C(=O)O (configuration not stated)
Response: < 6.00

Prompt: Please supply the value of reported pKi for the item NC(CCCP(=O)(O)O)C(=O)O (configuration not stated)
Response: > 6.00

Prompt: Please supply the value of reported pKi for the item "C[C@@H]1CN[C@H](C(=O)O)C[C@@H]1CP(=O)(O)O"
Response: > 6.00

Prompt: Please supply the value of reported pKi for the item "O=C(O)[C@H]1NCCC[C@H]1CCP(=O)(O)O"
Response: < 6.00

Prompt: Please supply the value of reported pKi for the item "O=C(O)[C@@H]1C[C@H](C/C=C/P(=O)(O)O)CCN1"
Response: > 6.00

Prompt: Please supply the value of reported pKi for the item "C[C@H]1C[C@@H](CP(=O)(O)O)C[C@@H](C(=O)O)N1"
Response: < 6.00

Prompt: Please supply the value of reported pKi for the item "C[C@@H]1[C@H](CP(=O)(O)O)CCN[C@@H]1C(=O)O"
Response: < 6.00

Prompt: Please supply the value of reported pKi for the item NC(CCCCCP(=O)(O)O)C(=O)O (configuration not stated)
Response: > 6.00

Reference source for all entries: ChEMBL document CHEMBL1126172
